- Test description: polyglutamine-triggered caspase-3 activation inhibitors, cell-based (AID 1583)
- Condition label: polyglutamine-induced caspase-3 activation, cell assay; stronger effect = higher value;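 tested at 10 µM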
Readout label: inhibition (%)
Only the number, expressed in %, is required.

## Task Give the measured inhibition of CCC(C)C(=O)O[C@H]1[C@H](O)C2C(CN3CC(C)CCC3[C@@]2(C)O)C2C[C@]34O[C@]5(O)C(OC(=O)C(C)(O)C(C)O)CC[C@@]3(C)C5C(OC(C)=O)[C@@H](OC(C)=O)C4[C@@]21O (some centres not stated) .
## Result 19.1

## Task Request the reported inhibition associated with C[C@@H]1O[C@@H](O[C@H]2C[C@@H](O)[C@]3(CO)C4C(CC[C@]3(O)C2)[C@@]2(O)CC[C@H](C3=CC(=O)OC3)[C@@]2(C)C[C@H]4O)[C@H](O)[C@H](O)[C@H]1O (some centres not stated)
## Result 78.5

## Task Reported inhibition for C=C1C2CC[C@H]3[C@]4(C)C[C@H](OC5OC(CO)C(OS(=O)(=O)O)C(OS(=O)(=O)O)C5OC(=O)CC(C)C)C[C@@H](C(=O)O)[C@H]4CC[C@]3(C2)[C@H]1O (some centres not stated) : what is it?
## Result 13.1

## Task Requested field: inhibition. Item: CC(C)(C)NCC(O)c1cc(Cl)c(N)c(Cl)c1 (configuration not stated)
## Result 5.01

## Task Can you look up the measured inhibition of CN1CC[C@]23c4c5ccc(O)c4O[C@H]2[C@H](O)C=CC3[C@H]1C5 (some centres not stated) for me?
## Result 2.86

## Task Need inhibition of CC[C@@]1(O)C[C@H](O[C@H]2C[C@H](N(C)C)[C@H](O)[C@H](C)O2)c2c(cc3c(c2O)C(=O)c2c(O)cccc2C3=O)[C@H]1C(=O)OC , thanks.
## Result 61.1

## Task GET /values?readout=inhibition&item= C[C@@H]([C@H](O)c1ccccc1)N(C)C
## Result -9.65

## Task Look up inhibition for this compound: O=C1C=C2C(=CCOC2O)O1 (configuration not stated)
## Result 71.1

## Task Form field: reported inhibition of CNC(C)Cc1ccc2c(c1)OCO2 (configuration not stated)
## Result -3.07

## Task Data request, read-out inhibition, for Oc1ccc2c3c1OC1[C@@H](O)CC[C@@]4(O)[C@@H](C2)N(CC2CCC2)CC[C@]314 (some centres not stated)
## Result -4.48

## Task What value of inhibition has been reported for the following compound? C#CC1(O)CCC2C3CCC4=CC(=O)CCC4(C)C3CCC21C (configuration not stated)
## Result 4.95

## Task Reported inhibition, compound CC[C@H]1CN2CCC1C[C@@H]2[C@@H](O)c1ccnc2ccc(OC)cc12 (some centres not stated) : ____
## Result -3.48

## Task Give the measured inhibition of CC[C@@H]1/C=C/C=C/C[C@H](C)[C@@H](O)[C@](C)(O)C(=O)[C@H](C)[C@@H](O)[C@H](C)C(=O)[C@H](C)[C@@H](O)[C@H](C)/C=C/C(=O)O[C@H]2[C@@H](C)[C@@H](CC1)O[C@@]1(CC[C@@H](C)[C@@H](C[C@H](C)O)O1)[C@@H]2C .
## Result -0.04

## Task Entry Clc1ccc(COC(Cn2ccnc2)c2ccc(Cl)cc2Cl)c(Cl)c1 (configuration not stated) : reported inhibition = ?
## Result 16.3

## Task Consider the compound CN1C(=O)CN=C(c2ccccc2F)c2cc([N+](=O)[O-])ccc21 and give its measured inhibition.
## Result 9.27

## Task Suppose we examine the compound CN1C[C@H](CO)C=C2c3cccc4[nH]cc(c34)C[C@H]21 ; what inhibition value has been reported?
## Result 16.6

## Task What value of inhibition has been recorded for this entry: CCC(=O)O[C@H]1CCC2C3CCC4=CC(=O)CC[C@]4(C)C3CC[C@@]21C (some centres not stated)
## Result 28.2
